Tested on: CAKI-1 renal
Protocol: NCI tumour cell line growth inhibition, 48 h
Quantity: TGI

// solved cases for TGI follow
• Cc1ccc(-c2csc(=Nc3c(C)n(C)n(-c4ccccc4)c3=O)n2CCO)cc1 = > 100 µM
• COc1ccc(C2=NN(C(C)=O)C(c3cn(-c4ccccc4)nc3-c3ccc(Cl)cc3)C2)cc1 (stereo not drawn) = > 100 µM

Next item in the queue.
Output measured TGI for this item: Nc1nc2nc[nH]c2c(=O)[nH]1
> 100 µM

* * *

Quick list: TGI per entry.
Tested on: EKVX NSCLC
Protocol: NCI tumour cell line growth inhibition, 48 h

// solved cases for TGI follow
• Cc1ccc(Cl)c(NC(=O)C(=O)C(C(=O)c2ccncc2)C2OC(=O)c3ccccc32)c1 (configuration not stated) = > 100 µM
• Cc1nc(NC(=O)CCCN2C(=O)c3cccc4cccc(c34)C2=O)sc1C(=O)Nc1cc(C(=O)NCCCN(C)C)n(C)c1 = > 100 µM

Output measured TGI for this item: CCOC(=O)[C@@]12CCC(C1=O)[C@](C)(O)C[C@@H]2c1ccccc1
> 100 µM

Output measured TGI for this item: O=C(Nc1nc2ncn(CC(COc3ccccc3)OC(=O)c3ccccc3)c2c(=O)[nH]1)c1ccccc1 (configuration not stated)
> 100 µM

Output measured TGI for this item: CCOC(=O)/C(=C/c1ccc(C#N)cc1)N(CC)CC
> 100 µM

Output measured TGI for this item: COC1=CC(c2ccc[nH]2)=N/C1=C\c1ccc[nH]1
16.4 µM

Output measured TGI for this item: COc1ccc2[nH]c3c(c2c1)COc1ccccc1C3=O
> 100 µM

Output measured TGI for this item: COc1ccc2c(c1)CCC1C2CC[C@]2(C)/C(=N/OC(=O)Cc3ccccc3)CCC12 (some centres not stated)
44.1 µM

Output measured TGI for this item: NC1=NNC2(C(N)=N1)c1ccccc1-c1ccccc12
> 10 µM

Output measured TGI for this item: Cc1n[nH]c(=O)n1/N=C/c1c[nH]c2ccccc12
> 100 µM

Output measured TGI for this item: C1=Cc2nc1c(-c1ccncc1)c1ccc([n-]1)c(-c1ccncc1)c1nc(c(-c3ccncc3)c3ccc([n-]3)c2-c2ccncc2)C=C1.[Zn+2]
> 100 µM

Output measured TGI for this item: Nc1c(-c2ccc(Cl)cc2Cl)[n+]([O-])c2ccccc2[n+]1[O-]
> 100 µM

src = PubChem BioAssay (NCI)
